Each recorded value in this set is attributed to PubChem BioAssay (NCI).

Test system: MALME-3M melanoma
Assay: NCI tumour cell line growth inhibition, 48 h; in the data active = GI50 below about 0.43 µM; inactive = the rest
Please reply with one of these outcomes: Yes (active), No (inactive)

# count of solved cases: 7
| Compound | Class |
| --- | --- |
| CC[C@]12C=CCN3CC[C@@]4(c5ccc(OC)cc5N(C)[C@H]4[C@@](O)(C(=O)OC)[C@@H]1OC(=O)CCCC[P+](c1ccccc1)(c1ccccc1)c1ccccc1)[C@@H]32 | Yes |
| O=c1[nH]ccc2nc(N3CCC(O)CC3)nc(Nc3ccc(N4CCOCC4)cc3)c12 | No |
| COc1ccc(C(=O)OC2C(OC3C(O)COC(O[C@H]4C[C@H]5[C@@H]6CC=C7C[C@@H](O)CC[C@]7(C)[C@H]6CC[C@]5(C)[C@H]4[C@H](C)C(=O)CCC(C)C)C3OC(=O)C(C)C)OCC(O)C2O)cc1 (stereo partly drawn) | Yes |
| CC[C@@]1(O)C(=O)OCc2c1cc1n(c2=O)Cc2cc3c([N+](=O)[O-])c(O)ccc3nc2-1 | No |
| CCN(CC)c1ccc(CNc2cc(C)nc3ccc(OC)cc23)cc1 | No |
| C=CC1CC12C(=O)C1OC2(C)C2C(=O)c3c(O)cccc3C(=O)C12 (stereo not drawn) | No |
| COc1ccccc1CN=C1NC(=O)/C(=C/c2ccc3ncccc3c2)S1 | No |

// query Recorded test call requested for O=C(NCCN1CCOCC1)Nc1nc2ccc(Sc3nnc4ccc(-c5ccc(F)cc5)nn34)cc2s1
// result No

====

Tested on: ACHN renal
Assay: NCI tumour cell line growth inhibition, 48 h
Measured attribute: GI50

| Compound | Assayed target | Measured attribute | Result |
| --- | --- | --- | --- |
| Cc1ccc(C(=O)Nc2ccc(CN3CCN(C)CC3)c(C(F)(F)F)c2)cc1C#Cc1cnc(N)c2ccc(C#N)cc12 | ACHN renal | GI50 | 18.2 nM |
| O=C1C2=C(C(=O)c3c(O)ccc(O)c31)N(c1cccnc1)Cc1ccccc1O2 | ACHN renal | GI50 | 61.2 nM |
| COc1ccccc1CN=C1NC(=O)/C(=C/c2ccc3ncccc3c2)S1 | ACHN renal | GI50 | 7490 nM |
| CS(=O)(=O)c1nccc(-c2c(-c3cccc(OCc4ccccc4)c3)nc3sccn23)n1 | ACHN renal | GI50 | 36400 nM |
| Cc1cc(NCCCNc2ccnc3cc(Cl)ccc23)nc(Nc2ccc(C(=O)N3CCCCC3)cc2)n1 | ACHN renal | GI50 | 2850 nM |
| Cc1cc(C)nc(NS(=O)(=O)c2ccc(Nc3nc4nc(NCc5ccccc5)nc(-c5ccc(O)cc5)c4c(=O)[nH]3)cc2)n1 | ACHN renal | GI50 | 29600 nM |

// query Which measured GI50 value corresponds to CCCCCCCC(=O)SCC/C=C/[C@@H]1CC(=O)NCc2cccc(n2)C2=N[C@@](C)(CS2)C(=O)N[C@@H](C(C)C)C(=O)O1 ?
// result 89.7 nM

// query Given the compound C=CC1CC12C(=O)C1OC2(C)C2C(=O)c3c(O)cccc3C(=O)C12 (centres undefined) , what is its reported GI50?
// result 20100 nM

// query Look at this compound and give its reported GI50. CCN(CC)c1ccc(CNc2cc(C)nc3ccc(OC)cc23)cc1
// result 2630 nM

// query // returns reported GI50 for input COc1ccc(/C=C(/C(=O)N2CCN(c3ccc(C)cc3)CC2)c2cc(OC)c(OC)c(OC)c2)cc1N
// result 203 nM

// query GI50 value for entry O=C1c2cccc3c([N+](=O)[O-])ccc(c23)C(=O)N1CCCCl
// result > 10000 nM

// query Reported GI50 for COc1ccc2c(c1)O/C(=C\c1ccc([N+](=O)[O-])o1)C2=O : what is it?
// result 625 nM

// query Can you look up the measured GI50 of CC/C=C\C[C@H](O)C/C=C1/C(=O)C=C[C@@H]1C/C=C\CCCC(=O)OCCS(=O)(=O)c1ccccc1 for me?
// result 3170 nM

// query Need GI50, item CC[C@@]1(O)C(=O)OCc2c1cc1n(c2=O)Cc2cc3c([N+](=O)[O-])c(O)ccc3nc2-1
// result 51 nM

====

Test system: OVCAR-3 ovarian
Experiment: NCI tumour cell line growth inhibition, 48 h
Reported values of TGI for individual entries

Example cases with answers are listed next.
| Compound | Result |
| --- | --- |
| O=C(c1ccc(-c2ccccc2)cc1)N(Cc1cccnc1)C(=S)N(Cc1cccnc1)C(=O)c1ccc(-c2ccccc2)cc1 | > 100 µM |
| COc1ccc2nc(-c3ccc(Cl)cc3)cc(-c3nnc(SCC(=O)Nc4ccc(/C(C)=N\O)cc4)o3)c2c1 | 5.47 µM |
| O=S(Nc1ccccc1)c1ccccc1Oc1ccccc1 (stereo not given) | > 100 µM |
| Nc1cc(N2CCOCC2)nc(=O)n1-c1ccccc1 | > 100 µM |

Let's switch to this compound now.
// query I'd like to know its TGI. The compound in question is S=P(C1CCCCC1)(C1CCCCC1)C(c1cccnc1)N1CCCC1 (stereo not given)
// result > 100 µM

====

Test system: OVCAR-8 ovarian
Assay: NCI tumour cell line growth inhibition, 48 h
TGI for assorted molecules

A selection of reference data follows.
| Molecule | Measured attribute | Result |
| --- | --- | --- |
| CCCCN1C(=O)C2c3[nH]c4ccccc4c3C3CCCCC3C2C1=O (mixture of isomers) | TGI | 58.8 µM |
| CCCCC1CCCCCCc2[nH]c(/C=C3\N=C(c4ccc[nH]4)C=C3OC)cc21 (stereo not given) | TGI | 1.33 µM |
| CC(=O)O[C@H]1CC[C@@]2(C)C(=CC[C@@H]3C2CC[C@]2(C)C(=O)NC(=O)CC32)C1 (stereo not given in full) | TGI | > 100 µM |
| NC(N)=NS(=O)(=O)c1ccc(NC(=O)c2cccn3c(=O)c4ccccc4nc23)cc1 | TGI | > 100 µM |
| O=C(O)\C=C/C=C/C=C/C=C/C(=O)O | TGI | > 100 µM |
| CCOc1ccccc1NC(=O)CSc1nnc(Cc2ccccc2)o1 | TGI | 54.8 µM |
| CC(=O)CC(=O)ON(C)C(C)=O | TGI | > 100 µM |
| Nc1nc(Cl)cc(NCC2(CO)CC(CCCc3ccccc3)C2)n1 (stereo not given) | TGI | > 100 µM |

// query TGI of CN1CCN2c3ccccc3CC(C#N)(C#N)C2C1 (stereo not given) on OVCAR-8 ovarian?
// result > 100 µM

// query Please provide the recorded TGI for O=P1(N(CCCl)CCCl)Oc2c(Cl)cc(Cl)c(Cl)c2Cc2c(Cl)c(Cl)cc(Cl)c2O1 , tested on OVCAR-8 ovarian.
// result > 100 µM

====

Test system: TK-10 renal
Assay: NCI tumour cell line growth inhibition, 48 h; in the data active = GI50 below about 0.43 µM; inactive = the rest
Answer with one of the outcomes given here: yes for active, no for inactive

Study these solved cases before continuing.
| Molecule | Class |
| --- | --- |
| COc1ccc(-c2c(-c3cc4c(c(OC)c3OC)OCO4)noc2N)cc1 | yes |
| [O-]c1ccccc1[C-]=Nc1ccccc1O.[O-]c1ccccc1[C-]=Nc1ccccc1O.[O]=[U]=[O] | no |
| O=c1ncc(I)c[nH]1 | no |
| C/C(=N\NC(=O)c1cccc(S(=O)(=O)N2CCN(C)CC2)c1)c1cc(Cl)ccc1O | no |
| CS(=O)(=O)c1nccc(-c2c(-c3cccc(OCc4ccccc4)c3)nc3sccn23)n1 | no |

// query Which result was noted for this molecule in the test: Nc1nc2ccccc2c2[nH]c3ccccc3c12
// result no

// query # lookup: test call for COc1cc(/C=C/C(=O)c2ccc(F)cc2)ccc1OCCCCOc1cc2c(cc1OC)C(=O)N1CCCC1C=N2 (stereo not given)
// result no

// query Tell me the recorded outcome of this test for COc1ccc(/C=C(/C(=O)N2CCN(c3ccc(C)cc3)CC2)c2cc(OC)c(OC)c(OC)c2)cc1N .
// result no

// query Field: outcome | Entry: Oc1ccccc1/C=N/Nc1nc2ccccc2s1
// result no

// query Hey, what did the test say about Cc1cc(C)nc(NS(=O)(=O)c2ccc(Nc3nc4nc(NCc5ccccc5)nc(-c5ccc(O)cc5)c4c(=O)[nH]3)cc2)n1 ?
// result no

====

Test system: UACC-62 melanoma
Assay: NCI tumour cell line growth inhibition, 48 h; in the data active means GI50 below about 0.43 µM; inactive means the rest
Permitted responses: 1.0 (active), 0.0 (inactive)

| Molecular string | Assayed target | Class |
| --- | --- | --- |
| CC[C@]12C=CCN3CC[C@@]4(c5ccc(OC)cc5N(C)[C@H]4[C@@](O)(C(=O)OC)[C@@H]1OC(=O)CCCC[P+](c1ccccc1)(c1ccccc1)c1ccccc1)[C@@H]32 | UACC-62 melanoma | 1.0 |
| N=C(N)c1ccc(CS(=O)(=O)F)cc1 | UACC-62 melanoma | 0.0 |
| CC(C)C[C@H](NC(=O)[C@H](Cc1ccccc1)NC(=O)c1cnccn1)B(O)O | UACC-62 melanoma | 1.0 |
| CN(C)c1ccc(/C=N/NC(=O)CSc2nc3sc4c(c3c(=O)n2-c2ccccc2)CCCCC4)cc1 | UACC-62 melanoma | 0.0 |
| C=C(C)[C@@H]1CC[C@]2(C(=O)N3CCN(C)CC3)CC[C@]3(C)[C@H](CC[C@@H]4[C@@]5(C)C/C(=C/c6ccncc6)[C@H](O)C(C)(C)[C@@H]5CC[C@]43C)[C@@H]12 | UACC-62 melanoma | 0.0 |
| C=C(C)[C@@H]1CC[C@]2(C)[C@H](CC=C3[C@@H]4CC(C)(C)CC[C@]4(CO)CC[C@]32C)[C@@]1(C)CCCN | UACC-62 melanoma | 0.0 |

// query Given CN(Cc1ccccc1)c1ncnc2ccc(Br)cc12 , state the outcome it received in this test.
// result 0.0

// query Please let me know the test result on file for C[C@@]1([C@H](OC(=O)c2cccc3ccccc23)C(N)=O)CO1 .
// result 0.0
